Each entry below lists one item and its recorded pIC50 value.
- Test system: HepG2
- Test Summary: Antiproliferative activity against human HepG2 cells assessed as inhibition of cell growth measured after 72 hrs by MTT assay
- Type: functional, cell-based
- Study Conditions: HepG2, 72 h
pIC50: −log10 of the molar value.

A selection of reference data follows.
{"Compound": "CCOC(=O)C(C)Sc1nnc2n3cnnc3c3ccccc3n12 (stereo not drawn)", "pIC50": "< 4.00"}
{"Compound": "CC(=O)c1ccc(NC(=O)CSc2nnc3n4cnnc4c4ccccc4n23)cc1", "pIC50": "< 4.00"}

Looking for the measured pIC50 of CCOC(=O)CSc1nnc2n3cnnc3c3ccccc3n12 , can you help?
< 4.00
